# experimental target: UniProtKB Q9NWT6
# Sequence (Q9NWT6 whole entry): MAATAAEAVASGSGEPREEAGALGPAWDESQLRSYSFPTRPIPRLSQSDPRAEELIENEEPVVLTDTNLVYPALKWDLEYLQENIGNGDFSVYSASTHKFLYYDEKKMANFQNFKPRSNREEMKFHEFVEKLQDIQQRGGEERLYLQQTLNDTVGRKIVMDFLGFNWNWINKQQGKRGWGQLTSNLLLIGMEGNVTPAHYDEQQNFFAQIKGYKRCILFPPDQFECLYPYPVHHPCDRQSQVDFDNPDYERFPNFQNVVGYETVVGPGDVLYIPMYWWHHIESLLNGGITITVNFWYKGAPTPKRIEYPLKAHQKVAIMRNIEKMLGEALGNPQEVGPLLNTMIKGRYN
# assay details: MALDI counterscreen, FIH
# Format: biochemical
# condition label: MALDI, 100 μM α-KG
assay readout: fold selectivity over KDM4C, FIH

> print(dat)
                                   compound  test.result
1  COCC(=O)Nc1ccc(O)c(-c2cc(C(=O)O)ccn2)c1 [Compound 42]    > 11 fold
2  CC(=O)Nc1ccc(O)c(-c2cc(C(=O)O)ccn2)c1 [Compound 44]     > 8 fold
3  O=C(O)c1ccnc(-c2cc(NC(=O)c3ccc(O)cc3)ccc2O)c1 [Compound 35]    > 85 fold
4  Nc1ccc(O)c(-c2cc(C(=O)O)ccn2)c1 [Compound 30]       6 fold
5  COc1cccc(CC(=O)Nc2ccc(O)c(-c3cc(C(=O)O)ccn3)c2)c1 [Compound 40]    > 68 fold
